FYI, the data here is from patent US20220195015A1.

# Target under test: SARS-CoV-2 spike protein receptor binding domain (RBD), wild type (SARS-CoV-2, UniProt P0DTC2 319-539)
# Test details: ELISA, RBD protein coated on plate, antibody titrated
Value kind: EC50 (ng/mL)
Express it in ng/mL; write the number only.

1. C525 (antibody, V domains shown) VH: EVQLVESGGRLVQPGRSLRLSCAASGFTFDDYAIHWVRQAPGKGLEWVSGISWNSGSIGYADSVRGRFTISRDNAKNSLYLQMNSLRAEDTALYYCAKGLDSSSSASPDYWGQGTLVTVSS VL: DIQMTQSPSSVSASVGDRVTITCRASQDISSWLAWYQQKPGKAPKLLIYLASSLQSGVPSRFSGSGSGTDFILTISSLQPEDFGTYYCQQGNSFPLTFGGGTKVEIK | 10.6

Problem: Provide EC50 value for the following binder: C515 (antibody, V domains shown) VH: EVQLVESGGGLVQPGGSLRLSCAASGFIVSSNYMSWVRQAPGKGLEWVSILYSGGSTYYADSVKGRFTISRDNSKNTLYLQMNSLRAEDTAVYYCARDLVVYGADYWGQGTLVTVSS VL: DIQLTQSPSFLSASVGDRVTITCRASQGISSYLAWYQQKPGKAPKLLIYAASTLQSGVPSRFSGSGSGTEFTLTISSLQPEDFATYYCQQLNSYPPPFGGGTKVEIK
Result: 1.73
